# target.or.system: Ribonucleotide reductase large subunit R1 (Herpes simplex virus)
# assay.protocol: Inhibitory effect was evaluated on Herpes simplex virus (HSV) ribonucleotide reductase (RR) enzyme.
*1 amine or outer side, *2 acyl side, *3 side chain or, on linkers, in order; H or OH if unused. Where a SMILES comes first, the peptide text is derived from it. The star is where a group is joined. NH(3-pentyl) = CCC(CC)N*; Pyrrolidide = C1CCN(*)C1; NHcHex = C1CCC(N*)CC1; CO = O=C([*:1])[*:2]; X2 = CCCC(CCC)N*
measured.endpoint: IC50 (nM)

>>> measurement("CCCC(CCC)NC(=O)N[C@H](C(=O)N[C@@H](CC(=O)N1CCCC1)C(=O)N[C@@H](CC(=O)O)C(=O)N[C@@H](CC(C)C)C(=O)O)C(C)C ({X2-CO}-VD(Pyrrolidide)DL-OH)")
7
>>> measurement("CC(C)C[C@H](NC(=O)[C@H](CC(=O)O)NC(=O)[C@H](CC(=O)N1CCCC1)NC(=O)[C@@H](NC(=O)NC1[C@H](C)CCC[C@@H]1C)C(C)C)C(=O)O (stereo in doubt; 9)")
2
>>> measurement("CCC(CC)NC(=O)N[C@H](C(=O)N[C@@H](CC(=O)N1CCCC1)C(=O)N[C@@H](CC(=O)O)C(=O)N[C@@H](CC(C)C)C(=O)O)C(C)C ({NH(3-pentyl)-CO}-VD(Pyrrolidide)DL-OH)")
15
>>> measurement("CC(C)C[C@H](NC(=O)[C@H](CC(=O)O)NC(=O)[C@H](CC(=O)N1CCCC1)NC(=O)[C@@H](NC(=O)NC1[C@@H](C)CCC[C@@H]1C)C(C)C)C(=O)O.CC(C)C[C@H](NC(=O)[C@H](CC(=O)O)NC(=O)[C@H](CC(=O)N1CCCC1)NC(=O)[C@@H](NC(=O)NC1[C@H](C)CCC[C@H]1C)C(C)C)C(=O)O")
20
>>> measurement("CC(C)C[C@H](NC(=O)[C@H](CC(=O)O)NC(=O)[C@H](CC(=O)N1CCCC1)NC(=O)[C@@H](NC(=O)NC1CCCCC1)C(C)C)C(=O)O ({NHcHex-CO}-VD(Pyrrolidide)DL-OH)")
500

====

The entries below are paired with their reported pIC50.
# target.or.system: Ribonucleotide reductase large subunit R1 (Herpes simplex virus)
# assay.protocol: Inhibitory effect was evaluated on Herpes simplex virus (HSV) ribonucleotide reductase (RR) enzyme.
pIC50: −log10 of the molar value.
measured.endpoint: pIC50

>>> measurement("CCC(CC)NC(=O)N[C@H](C(=O)N[C@@H](CC(=O)N1CCCC1)C(=O)N[C@@H](CC(=O)O)C(=O)N[C@H](CO)CC(C)(C)C)C(C)(C)C")
8.22
>>> measurement("CCC(CC)NC(=O)N[C@H](C(=O)N[C@@H](CC(=O)N1CCCC1)C(=O)N[C@@H](CC(=O)O)C(=O)NCC(C)(C)C)C(C)(C)C")
7.40
>>> measurement("CCC(CC)NC(=O)N[C@H](C(=O)N[C@@H](CC(=O)N1CCCC1)C(=O)N[C@@H](CC(=O)O)C(=O)NCC(C)C)C(C)(C)C")
5.72
>>> measurement("CCC(CC)NC(=O)N[C@H](C(=O)N[C@@H](CC(=O)N1CCCC1)C(=O)N[C@@H](CC(=O)O)C(=O)N[C@H](C)C(C)(C)C)C(C)(C)C")
7.57

====

# target.or.system: Ribonucleotide reductase large subunit R1 (Herpes simplex virus)
# assay.protocol: Inhibitory effect was evaluated on Herpes simplex virus (HSV) ribonucleotide reductase (RR) enzyme.
pIC50: −log10 of the molar value. *1 amine or outer side, *2 acyl side, *3 side chain or, on linkers, in order; H or OH if unused. Where a SMILES comes first, the peptide text is derived from it. [ ]: non-standard residue; d: D form. The star is where a group is joined. tBuAla = CC(C)(C)C[C@H](N)C(=O)O; Tle = CC(C)(C)[C@H](N)C(=O)O; NH(3-pentyl) = CCC(CC)N*; Pyrrolidide = C1CCN(*)C1; CO = O=C([*:1])[*:2]; NHiPr = CC(C)N*
The entries below are paired with their reported pIC50.
measured.endpoint: pIC50

>>> measurement("CCC(CC)NC(=O)N[C@H](C(=O)N[C@@H](CC(=O)N1CCCC1)C(=O)N[C@@H](CC(=O)O)C(=O)N[C@@H](CC(C)(C)C)C(=O)O)C(C)(C)C ({NH(3-pentyl)-CO}-[Tle]D(Pyrrolidide)D[tBuAla]-OH)")
9.22
>>> measurement("CCC(CC)NC(=O)N[C@H](C(=O)N[C@@H](CC(=O)N1CCCC1)C(=O)N[C@@H](CC(=O)O)C(=O)NCCC(C)(C)C)C(C)(C)C")
7.00
>>> measurement("CC(C)C[C@H](NC(=O)[C@H](CC(=O)O)NC(=O)[C@H](CC(=O)N1CCCC1)NC(=O)[C@@H](NC(=O)NC(C)C)C(C)C)C(=O)O ({NHiPr-CO}-VD(Pyrrolidide)DL-OH)")
6.36
>>> measurement("CCC(CC)NC(=O)N[C@H](C(=O)N[C@@H](CC(=O)N1CCCC1)C(=O)N[C@@H](CC(=O)O)C(=O)N[C@H](CC)C(C)(C)C)C(C)(C)C")
7.74
>>> measurement("CCC(CC)NC(=O)N[C@H](C(=O)C[C@@H](CC(=O)C(C)(C)C)C(=O)N[C@@H](CC(=O)O)C(=O)N[C@@H](CC(C)C)C(=O)O)C(C)(C)C")
8.30
>>> measurement("CCC(CC)NC(=O)N[C@H](C(=O)N[C@@H](CC(=O)N1CCCC1)C(=O)N[C@@H](CC(=O)O)C(=O)N[C@@H](CC)C(C)(C)C)C(C)(C)C")
5.70
>>> measurement("CCC(CC)NC(=O)N[C@H](C(=O)C[C@@H](CC(=O)N1CCCC1)C(=O)N[C@@H](CC(=O)O)C(=O)N[C@@H](CC(C)C)C(=O)O)C(C)(C)C")
8.15
>>> measurement("CCC(CC)NC(=O)N[C@H](C(=O)N[C@@H](CC(=O)N1CCCC1)C(=O)N[C@@H](CC(=O)O)C(=O)NCCC(C)C)C(C)(C)C")
6.46
>>> measurement("CC(C)C[C@H](NC(=O)[C@H](CC(=O)O)NC(=O)[C@H](CC(=O)N1CCCC1)NC(=O)[C@@H](NC(=O)NC1[C@H](C)CCC[C@@H]1C)C(C)C)C(=O)O (stereo in doubt; 7)")
7.26
>>> measurement("CCC(CC)NC(=O)N[C@H](C(=O)N[C@@H](CC(=O)N1CCCC1)C(=O)N[C@@H](CC(=O)O)C(=O)N[C@@H](C)C(C)(C)C)C(C)(C)C")
5.57
>>> measurement("CCC(CC)NC(=O)N[C@H](C(=O)N[C@@H](CC(=O)C(C)(C)C)C(=O)N[C@@H](CC(=O)O)C(=O)N[C@@H](CC(C)C)C(=O)O)C(C)(C)C")
8.52
>>> measurement("CCC(CC)NC(=O)N[C@H](C(=O)N[C@@H](CC(=O)N1CCCC1)C(=O)N[C@@H](CC(=O)O)C(=O)N[C@@H](CC(C)C)C(=O)O)C(C)(C)C ({NH(3-pentyl)-CO}-[Tle]D(Pyrrolidide)DL-OH)")
8.52
